Test system: MDA-MB-436
Assay: Cell growth inhibition, MDA-MB-436 breast cancer cells (WST-8)
Format: cell-based
Conditions: Homo sapiens, MDA-MB-436, 96 h; 4 days; read-out: IC50 (nM) MDA-MB-436 Cell Line (WST assay)
ENDPOINT LABEL: IC50 (nM)

> print(dat)
                           molecular.string  recorded.result
1  COc1cc2c(cc1-c1c(C)noc1C)[nH]c1nc(C)nc(Nc3ccnn3C(C)C)c12               71

[1] COc1cc2c(cc1-c1c(C)noc1C)[nH]c1nc(C)nc(Nc3nn(C)c4ncccc34)c12
[2] COc1cc2c(cc1-c1c(C)noc1C)[nH]c1nc(C)nc(Nc3cc(C(C)(C)C)nn3C)c12
# input // max by IC50 over [ 1 , 2 ] Please respond with the label that marks your chosen entry.
# output 1
(1: 138 nM, 2: 23.5 nM)

[a] COc1cc2c(cc1-c1c(C)noc1C)[nH]c1nc(C)nc(Nc3c4c(nn3CCO)CCC4)c12
[b] COc1cc2c(cc1-c1c(C)noc1C)[nH]c1nc(C)nc(Nc3cccc4c3CCO4)c12
# input // max by IC50 over [ a , b ] Please respond with the label that marks your chosen entry.
# output b

[P] COc1cc2c(cc1-c1c(C)noc1C)[nH]c1nc(C)nc(Nc3cnc(C)n3C)c12
[Q] COc1cc2c(cc1-c1c(C)noc1C)[nH]c1nc(C)nc(Nc3c4c(nn3C(C)C)CCCC4)c12
# input // max by IC50 over [ P , Q ] Please respond with the label that marks your chosen entry.
# output P
